Molecular target: ROR1 (antigen of the KD determination and of the Octet dissociation measurement) (UniProt Q01973 30-403, limits assumed)
Sequence (Q01973 30-403 limits assumed): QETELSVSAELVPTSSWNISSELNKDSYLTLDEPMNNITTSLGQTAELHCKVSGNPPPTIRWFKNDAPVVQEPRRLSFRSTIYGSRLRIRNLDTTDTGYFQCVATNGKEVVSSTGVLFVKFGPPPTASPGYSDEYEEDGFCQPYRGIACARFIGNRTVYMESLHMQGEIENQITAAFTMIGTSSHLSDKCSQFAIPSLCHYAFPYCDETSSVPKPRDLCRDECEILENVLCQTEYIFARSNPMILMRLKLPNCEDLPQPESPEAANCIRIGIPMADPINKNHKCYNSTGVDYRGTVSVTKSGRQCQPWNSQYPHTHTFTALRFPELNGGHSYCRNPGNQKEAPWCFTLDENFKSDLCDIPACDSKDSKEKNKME
Test: method not stated (conventional procedures)
observable: kon (M⁻¹ s⁻¹)
Please reply with the bare figure in M⁻¹ s⁻¹ and do not write the unit itself.

[[record]]
binder = "PR001366 (antibody, V domains shown, fully human IgG1, kappa) VH: QVQLVESGGGVVQPGRSLRLSCTASGFTFSSYGMHWVRQAPGKGLEWVAVKWYDGISQNFADSVKGRFTISRDNSKNTLYLQMNSLRAEDTAVYYCARDLARSFDIWGRGTLVTVSS VL: DIQLTQSPSTLSASVGDRVTITCRASQSINSWLAWYQQKPGKAPKLLIYKASSLESGVPSRFSGSGSGTEFTLTISSLQPDDFATYYCQQYKSYSPMYTFGQGTKVDIKR"
quantity_unit = "M⁻¹ s⁻¹"
readout_number = 448000


Lab note: next binder to report on.
Could you share which kon value was measured for PR001363 (antibody, human IgG1, kappa, V domains shown, fully human IgG1, kappa) VH: QVQLVESGGGVVQPGRSLRLSCAASGFSFSSYAMHWVRQAPGRGLEWVAVIWYDGGDEDSIDSVKGRFTISRDDSKNTLYLQMNSLRAEDTAVYYCAREQARSFDLWGRGTLVTVSS VL: DVVMTQSPSTLSASVGDRVTITCRASQTINNWLAWYQQKPGKAPKLLIYKASSLESGVPSRFSGSGSGTEFTLTISSLQPDDFATYYCQQYNSYSPMYTFGQGTKVEIKR ? 348000
